target: Cyclin-dependent kinase 7 (Homo sapiens, UniProt P50613); assay: Inhibition of CDK7
Sequence (P50613 whole entry): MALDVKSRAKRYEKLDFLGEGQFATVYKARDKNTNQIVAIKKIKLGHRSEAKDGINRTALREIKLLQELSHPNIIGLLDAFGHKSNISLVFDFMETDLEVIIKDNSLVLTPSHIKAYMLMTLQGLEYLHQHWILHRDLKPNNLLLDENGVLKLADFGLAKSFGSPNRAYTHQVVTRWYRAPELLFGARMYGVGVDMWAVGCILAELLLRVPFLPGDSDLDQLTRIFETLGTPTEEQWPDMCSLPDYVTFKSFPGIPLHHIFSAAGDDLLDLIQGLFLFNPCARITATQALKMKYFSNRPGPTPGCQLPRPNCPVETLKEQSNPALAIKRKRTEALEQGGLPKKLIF
pKi: −log10 of the molar value.
measurement-kind: pKi

*Q* Returns the measured pKi for the input compound. Input: N#Cc1ncc2nc1OCCCCOc1cc(NCc3cncs3)c(Cl)cc1NC(=O)N2
*A* < 5.82

* * *

assay: Inhibition of CMET; design: species or system Homo sapiens
measurement-kind: Ki

*Q* Please look up its Ki: N#Cc1ncc2nc1OCCCCOc1cc(NCc3cncs3)c(Cl)cc1NC(=O)N2
*A* > 2860 nM

* * *

Protein target, amino acids: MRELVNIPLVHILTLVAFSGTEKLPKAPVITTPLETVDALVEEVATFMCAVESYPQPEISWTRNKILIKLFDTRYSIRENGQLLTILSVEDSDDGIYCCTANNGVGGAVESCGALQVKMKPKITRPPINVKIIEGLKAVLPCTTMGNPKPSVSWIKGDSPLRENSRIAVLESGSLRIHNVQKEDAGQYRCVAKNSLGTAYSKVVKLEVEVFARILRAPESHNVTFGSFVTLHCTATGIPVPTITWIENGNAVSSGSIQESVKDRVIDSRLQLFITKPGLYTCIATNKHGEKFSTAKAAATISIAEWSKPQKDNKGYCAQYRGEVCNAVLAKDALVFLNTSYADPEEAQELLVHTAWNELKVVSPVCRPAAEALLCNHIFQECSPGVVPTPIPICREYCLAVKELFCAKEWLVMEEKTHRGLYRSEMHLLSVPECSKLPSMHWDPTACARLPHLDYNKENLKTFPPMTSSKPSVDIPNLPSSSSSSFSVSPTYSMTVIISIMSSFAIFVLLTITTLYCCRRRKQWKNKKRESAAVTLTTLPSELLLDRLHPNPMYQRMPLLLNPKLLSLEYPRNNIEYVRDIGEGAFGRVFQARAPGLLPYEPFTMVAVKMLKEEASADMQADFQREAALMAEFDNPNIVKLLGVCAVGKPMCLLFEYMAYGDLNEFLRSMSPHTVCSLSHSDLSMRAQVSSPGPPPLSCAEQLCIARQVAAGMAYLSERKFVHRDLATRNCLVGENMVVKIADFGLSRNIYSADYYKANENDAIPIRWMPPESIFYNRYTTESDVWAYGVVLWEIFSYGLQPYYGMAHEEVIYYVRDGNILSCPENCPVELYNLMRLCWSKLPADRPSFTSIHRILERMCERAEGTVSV
pKi: −log10 of the molar value.
measurement-kind: pKi

*Q* I would be grateful if you could share the reported pKi for N#Cc1ncc2nc1OCCCCOc1cc(NCc3cncs3)c(Cl)cc1NC(=O)N2 .
*A* < 5.78
